test system: plasma hemostasis; experiment: Prothrombin time after intravenous administration; assay type: in vivo, rabbit; conditions: 30.0 mg/kg intravenously, after 30 minutes; control 11.2 ± 0.1
Recorded prothrombin time, T for the following compounds
quantity_kind: prothrombin time, T (s)

INSERT INTO results (compound, quantity_kind, result_units, recorded_measurement) VALUES
  ('Nc1ccnc2c(=O)n([C@@H]3O[C@H](CO)[C@@H](O)[C@H]3O)[nH]c(=O)c12 [Compound 2]', 'prothrombin time, T', 's', 11.0),
  ('O=c1[nH][nH]c(=O)c2c(Br)ncnc12.[K] [Compound 37]', 'prothrombin time, T', 's', 11.2),
  ('Nc1cnc2c(=O)n([C@@H]3O[C@H](CO)[C@@H](O)[C@H]3O)[nH]c(=O)c2n1.[Na] [Compound 21]', 'prothrombin time, T', 's', 11.2),
  ('Nc1cccc2c(=O)[nH][nH]c(=O)c12.[Na] [Compound 15]', 'prothrombin time, T', 's', 11.2);

====

Recorded thrombin time, T2 for the following compounds
tested on: plasma hemostasis; assay: Thrombin time after intravenous administration; assay type: in vivo, rabbit; conditions: 30.0 mg/kg intravenously, after 15 minutes; control 14.7
Marks after values point to notes of the source that are not given here.
quantity_kind: thrombin time, T2

INSERT INTO measurements (smiles_structure, recorded_measurement) VALUES
  ('O=c1[nH][nH]c(=O)c2c(Br)ncnc12.[K]', '19.5* s'),
  ('Nc1ccnc2c(=O)n([C@@H]3O[C@H](CO)[C@@H](O)[C@H]3O)[nH]c(=O)c12', '17.8* s'),
  ('Nc1cnc2c(=O)n([C@@H]3O[C@H](CO)[C@@H](O)[C@H]3O)[nH]c(=O)c2n1.[Na]', '17.9* s'),
  ('Nc1cccc2c(=O)[nH][nH]c(=O)c12.[Na]', '19.7* s');

====

assay: Morphine abstinence model: nitrites/nitrates NOX− in blood plasma, liver and brain; type: in vivo, rats Wistar; conditions: Control + Compound, 20.0 mg/kg intramuscularly; control 5.66 ± 0.19
quantity_kind: Nitrites in brain: Mesencephalon

INSERT INTO assay_data (smiles_structure, quantity_kind, recorded_measurement) VALUES
  ('O=c1[nH][nH]c(=O)c2c(Br)ncnc12.[K]', 'Nitrites in brain: Mesencephalon', '6.84 ± 0.56 nmol/mg of protein'),
  ('O=c1[nH][nH]c(=O)c2nccnc12.[Li]', 'Nitrites in brain: Mesencephalon', '6.98 ± 1.02 nmol/mg of protein'),
  ('Nc1cccc2c(=O)[nH][nH]c(=O)c12.[Na]', 'Nitrites in brain: Mesencephalon', '6.65 ± 0.70 nmol/mg of protein'),
  ('O=c1[nH][nH]c(=O)c2ncccc12.[Li]', 'Nitrites in brain: Mesencephalon', '7.01 ± 0.82 nmol/mg of protein');

====

experiment: Electrochemical activity: polarographic reduction on mercury dripping electrode; type: physicochemical; settings: pH 7.4; vs SCE, 37° C., forward trace; average for the group of compounds
Recorded −E1/2 for the following compounds
quantity_kind: −E1/2 (V)

INSERT INTO measurements (smiles_structure, result_units, recorded_measurement) VALUES
  ('Nc1cccc2c(=O)[nH][nH]c(=O)c12.[Na]', 'V', 0.092),
  ('O=C([O-])c1ccc2c(=O)[nH][nH]c(=O)c2c1.O=C([O-])c1ccc2c(=O)[nH][nH]c(=O)c2c1.[Na+].[Na+]', 'V', 0.092),
  ('Nc1cccc2c(=O)n([C@@H]3O[C@H](CO)[C@@H](O)[C@H]3O)[nH]c(=O)c12.[Na]', 'V', 0.092);
